Just for reference, ChEMBL document CHEMBL3997785 is where these values come from.

Each entry below carries its reported selectivity ratio.
# TEST DESCRIPTION: Selectivity index, ratio of EC50 for human HepG2 cells to EC50 for Plasmodium falciparum 3D7 asexual blood stage infected in human erythrocytes
# Type: toxicity, cell-based
# CONDITIONS: read-out: Ratio EC50

[[record]]
compound = "c1ccc2c(NCC3CCCO3)nc(Nc3ccc4c(c3)OCO4)nc2c1 (stereo not drawn)"
result = 51

[[record]]
compound = "CN1CCN(C(=O)CNc2nc(Nc3ccc(F)cc3)nc3ccccc23)CC1"
result = 473

[[record]]
compound = "Clc1cccc(Nc2nc(NCc3ccco3)c3ccccc3n2)c1"
result = 37

[[record]]
compound = "CN1CCC(Nc2nc(Nc3ccc(F)c(Cl)c3)nc3ccccc23)CC1.Cl.Cl"
result = 145

[[record]]
compound = "Cc1ccc(Nc2nc(NCc3ccco3)c3ccccc3n2)cc1"
result = 54

[[record]]
compound = "COc1ccc(Nc2nc(NCC3CCCO3)c3ccccc3n2)c(OC)c1 (stereo not drawn)"
result = 19


Prompt: Look up and report measured selectivity ratio for this entry: `CN1CCC(Nc2nc(Nc3ccc(Cl)c(F)c3)nc3cccnc23)CC1`
Completion: 39

Prompt: Provide selectivity ratio value for the following compound: `CCOc1ccc(Nc2nc(NCc3ccccc3)c3ccccc3n2)cc1`
Completion: 29

Prompt: Please supply the value of reported selectivity ratio for the item `COc1cc2nc(Nc3ccc(F)cc3)nc(NCc3ccccc3)c2cc1OC`
Completion: 109

Prompt: Report selectivity ratio for `Fc1ccc(Nc2nc(NCc3ccco3)c3ccccc3n2)cc1`
Completion: 43

Prompt: Please look at this compound and report its selectivity ratio: `Fc1ccc(Nc2nc(NCCN3CCCC3)c3ccccc3n2)cc1`
Completion: 343

Prompt: Kindly indicate its recorded selectivity ratio. Item: `CN1CCC(Nc2nc(Nc3ccc(F)c(Cl)c3)nc3cccnc23)CC1`
Completion: 86

Prompt: Using known records, supply selectivity ratio for COc1ccccc1Nc1nc(NCC2CCCO2)c2ccccc2n1 (stereo not drawn)
Completion: 47

Prompt: Input `CN(C)CCNc1nc(Nc2ccc(F)cc2)nc2ccccc12` , output reported selectivity ratio.
Completion: 267

Prompt: For the compound Fc1cccc(Nc2nc(NCC3CCCO3)c3ccccc3n2)c1 (stereo not drawn) , report selectivity ratio.
Completion: 39

---

# System: Liver
# TEST DESCRIPTION: Drug metabolism in human liver microsomes assessed as N-demethylation of methyl piperidine or piperazine at 1 uM after 60 mins in presence of NADPH by LC-MS method
# Assay type: ADME, microsome
# CONDITIONS: 1 h
OBSERVABLE: Drug metabolism

[[record]]
entry_smiles = "CN1CCN(CCNc2nc(Nc3ccc(F)c(Cl)c3)nc3ccccc23)CC1.Cl.Cl"
result = "Metabolite_Detected"

[[record]]
entry_smiles = "CN1CCC(Nc2nc(Nc3ccc(Cl)c(F)c3)nc3ccccc23)CC1.Cl.Cl"
result = "Metabolite_Detected"

[[record]]
entry_smiles = "CN1CCN(CCNc2nc(Nc3ccc(Cl)c(F)c3)nc3ccccc23)CC1.Cl.Cl"
result = "Metabolite_Detected"

[[record]]
entry_smiles = "CN1CCC(Nc2nc(Nc3ccc(F)c(Cl)c3)nc3ccccc23)CC1.Cl.Cl"
result = "Metabolite_Detected"


---

# TEST DESCRIPTION: Hepatic extraction ratio in mouse liver microsomes at 1 uM in presence of NADPH by LC-MS method
# Assay type: ADME, microsome
# CONDITIONS: read-out: ERH
Each entry below carries its reported hepatic extraction ratio at 1 µM.
// no unit, no text: just the number

[[record]]
molecule = "CN1CCC(Nc2nc(Nc3ccc(Cl)c(F)c3)nc3ccccc23)CC1.Cl.Cl"
numeric_readout = 0.16

[[record]]
molecule = "CN1CCN(CCNc2nc(Nc3ccc(F)c(Cl)c3)nc3ccccc23)CC1.Cl.Cl"
numeric_readout = 0.55

[[record]]
molecule = "COc1ccc(Nc2nc(NCc3ccccc3)c3ccccc3n2)cc1"
numeric_readout = 0.73

[[record]]
molecule = "CN1CCC(Nc2nc(Nc3ccc(F)c(Cl)c3)nc3ccccc23)CC1.Cl.Cl"
numeric_readout = 0.2

[[record]]
molecule = "CN1CCN(CCNc2nc(Nc3ccc(Cl)c(F)c3)nc3ccccc23)CC1.Cl.Cl"
numeric_readout = 0.44

[[record]]
molecule = "COc1cc2nc(Nc3ccc(F)cc3)nc(NCc3ccccc3)c2cc1OC"
numeric_readout = 0.43


Could you now look at the following molecule, please?
Prompt: Supply recorded hepatic extraction ratio at 1 µM for COc1cc2nc(Nc3ccc(F)cc3)nc(NCC3CCCO3)c2cc1OC (configuration not stated) here.
Completion: 0.61
